Tested on: A549
Measurement Description: NCI tumour cell line growth inhibition, 48 h
Active and inactive are the calls of the source. No stated cut-off is given here; in the data, active = GI50 up to about 1.1 µM and inactive = higher.
Experimental Readout: GI50

Solved cases (2 shown):
> print(dat)
                                   compound               result
1  O=C(Nc1ccc2oc(=O)c(C(=O)O)cc2c1)Oc1ccccc1  > 100 µM (inactive)
2                           O=C1CCNC(=O)NC1  > 100 µM (inactive)

Ask | Form field: GI50 recorded for CC(C)[Si](OCC1CC(C#N)OC(C)(C)O1)(C(C)C)C(C)C (stereo not given) with A549 (enter value)
Reply | 30.8 µM (inactive)

Ask | Let us now turn to `N/C(=N\O)N/N=C/c1cccc(F)c1`
Reply | 31.7 µM (inactive)

Ask | Same for `CC(=O)c1cccc(Nc2nc3ccccc3c3occc23)c1`
Reply | 13.5 µM (inactive)

---

System: OVCAR-8
Measurement Description: NCI tumour cell line growth inhibition, 48 h
Active and inactive are the calls of the source. Cut-off read from the data, not from the text of the source: active = GI50 up to about 1.1 µM and inactive = higher.
Respond only with the outcome that fits, drawn from t (active), f (inactive)

> print(dat)
                                    molecule  target.or.test.system  class.assignment
 1  CC(=O)/C(=C/n1ccc(=O)[nH]c1=S)C(=O)Nc1ccccc1C                OVCAR-8                 f
 2  CC(=O)OC1CC2CCC1(C)C2(C)C (stereo unspecified)                OVCAR-8                 f
 3                   CCOC(=N)CC(=O)Nc1ccccc1                OVCAR-8                 f
 4  O=C1CCCC2=C1CC1=C(CCCC1=O)N2c1ccc([N+](=O)[O-])cc1                OVCAR-8                 f
 5  O=C(Nc1ccccc1F)c1cc2ccc(O)cc2o/c1=N\c1cccc(F)c1                OVCAR-8                 f
 6  COc1ccc(N2C(=O)C3c4[nH]c5ccc(F)cc5c4C4CCC(C(C)(C)C)CC4C3C2=O)cc1 (stereo unspecified)                OVCAR-8                 f
 7  CC(=O)OCCOCn1c2ccccc2c2c3c(c4c5ccccc5n(COCCOC(C)=O)c4c21)C(=O)N(Cc1ccccc1)C3=O                OVCAR-8                 f
 8  N#CC1=C(N)N(/N=C/c2ccco2)C(c2ccco2)C1(C#N)C#N (stereo unspecified)                OVCAR-8                 f
 9                Cc1c(-c2ccccn2)ccc2ccccc12                OVCAR-8                 f
10            Cc1ccnc(NC(=S)Nc2cccc(Cl)c2)c1                OVCAR-8                 f

Ask | # outcome recorded in this test, key = `Oc1cc(-c2ccccc2Cl)nc2cc3c(cc12)OCO3`
Reply | t

---

System: Malme-3M
Measurement Description: NCI tumour cell line growth inhibition, 48 h
Calls of active or inactive are those of the source. Rule as the data show it: active = GI50 up to about 1.1 µM and inactive = higher.
Experimental Readout: GI50

> print(dat)
                                   molecule  experimental.readout               result
1  COc1ccc(N2C(=O)C3c4[nH]c5ccc(C)cc5c4C4CCC(C)CC4C3C2=O)cc1 (configuration not stated)                  GI50  > 100 µM (inactive)
2  c1ccc(SCCP(CCP(c2ccccc2)c2ccccc2)c2ccccc2)cc1 (configuration not stated)                  GI50   11.5 µM (inactive)
3  CC(C)C[C@H]1[C@@H](OCc2ccccc2)COS(=O)N1[C@H](C)c1ccccc1 (some centres not stated)                  GI50   12.7 µM (inactive)
4  CC(=O)N1CC(=O)N2C(=O)/C(=C/c3ccc(Cl)cc3)N=C12                  GI50  > 100 µM (inactive)
5    CCC1(CC)C(=O)NN(C(=O)c2ccc(Cl)cc2)C1=O                  GI50     0.23 µM (active)
6  Cc1ncc([N+](=O)[O-])n1CCn1ccnc1[N+](=O)[O-]                  GI50   72.1 µM (inactive)
7  Cc1ccc(-c2cc(-c3ccccc3)c(C#N)c(=O)[nH]2)cc1                  GI50  > 100 µM (inactive)
8  O=c1[nH]c(=O)n(C2CC(O)C(CO)O2)cc1/N=N/NCCc1ccccc1 (configuration not stated)                  GI50  > 100 µM (inactive)

# ---- query molecule ----
Ask | Recorded GI50 for `O=c1c2cc(-c3ccccc3)cnc2sn1-c1ccc(Br)cc1` with Malme-3M, please?
Reply | 51.8 µM (inactive)
